Reference source: PubChem BioAssay (EPA / NIEHS)

read-out: Urokinase-type plasminogen activator receptor (uPAR), PLAUR (gene 5329); test: BSK_BE3C_uPAR: BioMAP Diversity Plus: BE3C Assay for Urokinase-type plasminogen activator receptor (uPAR) Biomarker Activity (AID 2283039); settings: primary human bronchial epithelial cells; actives raise or lower the signal;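 on outcome: uPAR protein level measured by ELISA on the cells; cells exposed to compound for one day before measurement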
Calls of active or inactive are those of the source. How the source made its calls: active means hit-call score of the fitted dose curve at least 0.9, where 1 is the maximum; inactive means score below 0.9.
Write down one outcome, taken from 1 (active), 0 (inactive)

Consider the following illustrative entries.
1) Cc1ccc(OP(=O)(Oc2ccc(C)cc2)Oc2ccc(C)cc2)cc1 (tested in a mixture with another compound); 1
2) O=c1c2ccccc2c(=O)c2c1cc(Cl)c1[nH]c3c([nH]c12)c(Cl)cc1c(=O)c2ccccc2c(=O)c13; 0
3) CC(C)(c1cc(Cl)c(O)c(Cl)c1)c1cc(Cl)c(O)c(Cl)c1; 1
4) O=S(=O)(c1ccccc1)c1ccccc1; 0
5) Oc1cc(Cl)ccc1Cl; 0

Note: attention shifts to another entry.
Query block: Which outcome was assigned to `CC(C)COP(=O)(OCC(C)C)OCC(C)C` in this test?
Result block: 0

====

target: PGR (gene 5241) (UniProt P06401); assay: TOX21_PR_LUC_Followup_Agonist: Tox21 HEK293 Progesterone Receptor (PR) Agonism Luciferase Follow-Up Assay (AID 2283937)
Sequence (P06401 whole entry, looked up): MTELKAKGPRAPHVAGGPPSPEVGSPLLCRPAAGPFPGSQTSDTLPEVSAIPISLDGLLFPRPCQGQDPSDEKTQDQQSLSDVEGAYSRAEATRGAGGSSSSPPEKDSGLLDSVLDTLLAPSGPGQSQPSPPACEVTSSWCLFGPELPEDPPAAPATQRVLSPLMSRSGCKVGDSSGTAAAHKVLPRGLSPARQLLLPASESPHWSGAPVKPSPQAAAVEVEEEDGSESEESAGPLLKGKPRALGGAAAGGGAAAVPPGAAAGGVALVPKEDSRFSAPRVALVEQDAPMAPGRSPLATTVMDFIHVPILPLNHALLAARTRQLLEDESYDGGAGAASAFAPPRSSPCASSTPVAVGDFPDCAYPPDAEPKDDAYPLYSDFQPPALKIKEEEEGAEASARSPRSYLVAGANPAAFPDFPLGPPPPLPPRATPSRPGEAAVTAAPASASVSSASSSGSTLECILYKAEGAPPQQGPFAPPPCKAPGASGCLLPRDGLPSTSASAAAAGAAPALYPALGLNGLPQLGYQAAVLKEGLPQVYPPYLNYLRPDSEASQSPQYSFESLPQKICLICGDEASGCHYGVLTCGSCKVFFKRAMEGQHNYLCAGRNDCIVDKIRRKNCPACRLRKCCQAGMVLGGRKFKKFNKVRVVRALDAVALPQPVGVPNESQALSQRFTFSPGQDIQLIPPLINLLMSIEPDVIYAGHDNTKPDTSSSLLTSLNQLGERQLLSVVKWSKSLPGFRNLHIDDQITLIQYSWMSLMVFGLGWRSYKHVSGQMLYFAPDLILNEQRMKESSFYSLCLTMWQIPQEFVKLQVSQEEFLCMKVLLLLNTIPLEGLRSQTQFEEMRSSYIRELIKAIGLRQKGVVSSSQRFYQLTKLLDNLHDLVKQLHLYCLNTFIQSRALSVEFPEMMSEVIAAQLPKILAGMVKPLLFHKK
Activity calls are given as the source filed them. How the source made its calls: active means hit-call score of the fitted dose curve at least 0.9, where 1 is the maximum; inactive means score below 0.9.
readout-kind: AC50

1. C[C@]12CC[C@H]3[C@@H](CCC4=CC(=O)CC[C@@H]43)[C@@H]1CC[C@@H]2OC(=O)CCc1ccco1; 27.5 nM (active)
2. CC(=O)O[C@H]1CC[C@@]2(C)C(=CC[C@@H]3[C@@H]2CC[C@]2(C)C(=O)CC[C@@H]32)C1; inactive
3. CCOP(=S)(OCC)Oc1cc(Cl)c(Br)cc1Cl; inactive
4. C[C@]12Cc3nonc3C[C@@H]1CC[C@@H]1[C@@H]2CC[C@@]2(C)[C@H]1CC[C@]2(C)O; 862 nM (active)
5. CCC(=O)O[C@@H]1C=C2CCC3C(CCC4(C)C3CC[C@@H]4OC(=O)CC)C2CC1 (some centres not stated); 165 nM (active)

# batch size: 2; output AC50 per entry
1. C[C@]12CC[C@H]3[C@@H](CC[C@@]45O[C@@H]4C(O)=C(C#N)C[C@]35C)[C@@H]1CC[C@@H]2O
2. O=C1C(Cl)C(CCl)CN1c1cccc(C(F)(F)F)c1 (configuration not stated)

Result block:
inactive
inactive

====

biological target: Peroxisome proliferator-activated receptor gamma (Homo sapiens); test: OT_PPARg_PPARgSRC1_1440: Odyssey Thera (OT) 24-hour Protein-Complementation Assay for Peroxisome Proliferator-activated Receptor Gamma/ SRC-1 Co-activator (AID 2283388);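 further: nuclear to cytoplasmic ratio of reconstituted Venus YFP fluorescence in fixed imaged cells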
The source made the active and inactive calls. The calls were made as follows: active = hit-call score of the fitted dose curve at least 0.9, where 1 is the maximum; inconclusive = response in the unintended direction; inactive = score below 0.9.
readout-kind: outcome

1) CCOP(=O)(OCC)Oc1ccc([N+](=O)[O-])cc1; inactive
2) CCOC(=O)NC(=S)Nc1ccccc1NC(=S)NC(=O)OCC; inactive
3) CC1(C)[C@H](C(=O)O[C@H](C#N)c2cccc(Oc3ccccc3)c2)[C@@H]1C=C(Br)Br; inactive

====

biological target: Cellular tumor antigen p53 (Homo sapiens) (UniProt P04637); experiment: TOX21_p53_BLA_p5_ratio: Tox21 HCT-116 p53 Agonism Beta-lactamase Assay, Ratio, Phase 5 (AID 2283599)
Sequence (P04637 whole entry, looked up): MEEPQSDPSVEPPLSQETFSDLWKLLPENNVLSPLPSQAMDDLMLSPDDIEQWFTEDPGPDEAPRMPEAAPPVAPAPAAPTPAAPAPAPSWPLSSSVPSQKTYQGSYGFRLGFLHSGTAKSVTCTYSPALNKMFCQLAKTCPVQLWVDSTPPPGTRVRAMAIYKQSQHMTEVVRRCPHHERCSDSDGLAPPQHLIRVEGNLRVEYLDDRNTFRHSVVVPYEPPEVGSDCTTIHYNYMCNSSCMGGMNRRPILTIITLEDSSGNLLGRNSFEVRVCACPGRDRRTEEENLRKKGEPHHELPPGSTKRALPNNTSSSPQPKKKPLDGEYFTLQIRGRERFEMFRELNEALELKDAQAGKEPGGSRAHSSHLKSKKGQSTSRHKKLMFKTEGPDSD
Inconclusive results are not listed. Activity calls are given as the source filed them. The calls were made as follows: active = hit-call score of the fitted dose curve at least 0.9, where 1 is the maximum; inconclusive = response in the unintended direction; inactive = score below 0.9.
Write down one outcome, taken from active, inactive

1) CC(=O)Oc1ccc2c3c1O[C@H]1[C@@H](OC(C)=O)C=C[C@H]4[C@@H](C2)N(C)CC[C@@]341; inactive
2) CN1C(=O)[C@@H](NC(=O)c2cc3ccccc3[nH]2)N=C(c2ccccc2)c2ccccc21; inactive
3) [O]=[Cr](=[O])([OH])[O][Cr](=[O])(=[O])[OH]; active
4) Cc1nnc2n1-c1sc(CCc3ccc(CC(C)C)cc3)cc1C(c1ccccc1Cl)=NC2C (stereo unspecified); active
5) C=CC(=O)OCCCCOC(=O)C=C; inactive
6) COC1=CC(=O)O[C@@H](/C=C/c2ccc3c(c2)OCO3)C1; inactive
7) Cc1nnc2n1-c1sc(CCC(=O)N3CCOCC3)cc1C(c1ccccc1Cl)=NC2; inactive
8) COC1CC(=C(c2cccs2)c2cccs2)C[N+](C)(C)C1 (stereo unspecified); inactive
9) ClC=C(Cl)Cl; inactive
10) CC(=O)[O][Sn]([c]1ccccc1)([c]1ccccc1)[c]1ccccc1; active

Note: attention shifts to another entry.
Query block: Which outcome was assigned to `CCC(=O)OC1(c2ccccc2)CCN(C)CC1` in this test?
Result block: inactive

====

molecular target: Signal transducer and activator of transcription 3 (Homo sapiens); test: ATG_STAT3_CIS: Attagene CIS-FACTORIAL HepG2 Assay for human Signal Transducer and Activator of Transcription 3 (STAT3) (AID 2282963); conditions: HepG2, Attagene cis-factorial STAT3 reporter transcription; actives raise or lower the signal
Activity calls are given as the source filed them. How the source made its calls: active means hit-call score of the fitted dose curve at least 0.9, where 1 is the maximum; inactive means score below 0.9.
readout-kind: outcome

Solved entries (count: 4):
1. S=c1[nH]c2ccccc2[nH]1; inactive
2. CC1(C)CC(=O)CC(C)(C)N1[O]; inactive
3. C=CC(=O)OCCCCOC(=O)C=C; inactive
4. CN(C)CCC#N; inactive

# batch size: 8; output outcome per entry
1. Oc1ccc(Cl)cc1
2. [CH3][Sn]([CH3])([Cl])[Cl]
3. CCOP(O)OCC
4. CC(C)CCCCCCCOC(=O)c1ccccc1C(=O)OCCCCCCCC(C)C
5. [N-]=[N+]=CC(=O)OC[C@H](N)C(=O)O
6. O=C(NC(=O)c1c(F)cccc1F)Nc1ccc(Oc2ccc(C(F)(F)F)cc2Cl)cc1F
7. O=C(O)c1cc[c]([Hg][Cl])cc1
8. CSc1nc(N=[N+]=[N-])nc(NC(C)C)n1

Result block:
1: inactive; 2: inactive; 3: inactive; 4: inactive; 5: inactive; 6: inactive; 7: inactive; 8: inactive

# batch size: 2; output outcome per entry
1. CC(C)(C)C(=O)CCl
2. CN(C)C(=O)C(c1ccccc1)c1ccccc1

Result block:
inactive
inactive

====

assay: ATG_M_32_CIS: Attagene CIS-FACTORIAL HepG2 Assay for M32 Transcription Factor (Internal Marker) (AID 2282949); details: HepG2 Attagene cis-factorial M32 reporter, mRNA; actives raise or lower the signal;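 further: background control marker of the multiplexed CIS panel rather than a real target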
Active and inactive are the calls of the source. Rule for the calls: active = hit-call score of the fitted dose curve at least 0.9, where 1 is the maximum; inactive = score below 0.9.
readout-kind: outcome

Solved entries (count: 5):
1. CCOP(=O)(OCC)OCC; inactive
2. N#Cc1cc(I)c(O)c(I)c1; inactive
3. SCc1ccco1; inactive
4. Oc1ccc(C2(c3ccc(O)cc3)c3ccccc3-c3ccccc32)cc1; inactive
5. O=[N+]([O-])C=Cc1ccccc1; inactive

# batch size: 6; output outcome per entry
1. O=[N+]([O-])O.O=[N+]([O-])O.[Cd]
2. Nc1ccccc1C(=O)OCCc1ccccc1
3. CN1C[C@H](C(=O)N[C@]2(C)O[C@@]3(O)[C@@H]4CCCN4C(=O)[C@H](Cc4ccccc4)N3C2=O)C=C2c3cccc4[nH]cc(c34)C[C@H]21
4. CCC(=O)c1ccc(Cl)cc1
5. CCC[N+](=O)[O-]
6. O=C(O)c1cc[c]([Hg][Cl])cc1

Result block:
1: inactive; 2: inactive; 3: inactive; 4: inactive; 5: inactive; 6: inactive

# batch size: 6; output outcome per entry
1. COC(=O)COc1ccc(Cl)cc1Cl
2. C=CC(=O)OCC(CC)CCCC (stereo not given)
3. Oc1ccc(Cl)cc1
4. CC(C)CCCCCCCOP(=O)(Oc1ccccc1)Oc1ccccc1
5. O=P(O)(Oc1ccccc1)Oc1ccccc1
6. [N-]=[N+]=CC(=O)OC[C@H](N)C(=O)O

Result block:
["inactive", "inactive", "inactive", "inactive", "inactive", "inactive"]

# batch size: 5; output outcome per entry
1. N#CCCCCC#N
2. CC1(C)CC(=O)CC(C)(C)N1[O]
3. CCCCCCCCCCCC#N
4. CCN(CC)C(=S)S
5. c1ccc(P(c2ccccc2)c2ccccc2)cc1

Result block:
1. inactive
2. inactive
3. inactive
4. inactive
5. inactive

# batch size: 4; output outcome per entry
1. CC(O)CN(CC(C)O)CC(C)O (stereo not given)
2. C=C(Cl)Cl
3. CC(C)C#N
4. C=CCc1ccc(OC(=O)Cc2ccccc2)c(OC)c1

Result block:
inactive
inactive
inactive
inactive

# batch size: 2; output outcome per entry
1. c1ccc2c(c1)CCCC2
2. CCOP(O)OCC

Result block:
["inactive", "inactive"]

# batch size: 8; output outcome per entry
1. C=CCO
2. CCc1cccc(C)c1N(C(=O)CCl)[C@@H](C)COC
3. COc1ncc(F)c2nc(S(=O)(=O)Nc3c(F)cccc3F)nn12
4. CN1C(=O)CCS(=O)(=O)C1c1ccc(Cl)cc1 (stereo not given)
5. CC(C)COP(=O)(OCC(C)C)OCC(C)C
6. CCC(C)c1cc([N+](=O)[O-])cc([N+](=O)[O-])c1OC(=O)C=C(C)C (stereo not given)
7. CC(C)[C@@H](C(=O)O[C@@H](C#N)c1cccc(Oc2ccccc2)c1)c1ccc(Cl)cc1
8. CC(C)(O)C#N

Result block:
1: inactive; 2: inactive; 3: inactive; 4: inactive; 5: inactive; 6: inactive; 7: inactive; 8: inactive

# batch size: 6; output outcome per entry
1. CCC1CCC(=O)O1 (stereo not given)
2. C=C(Cl)CCl
3. CC=Cc1ccc2c(c1)OCO2
4. N#Cc1cccc(C#N)c1
5. Cc1ncc(C[n+]2csc(CCO)c2C)c(N)n1
6. C=CC(=O)OCCCCOC(=O)C=C

Result block:
1. inactive
2. inactive
3. inactive
4. inactive
5. inactive
6. inactive

# batch size: 3; output outcome per entry
1. N#CCNCC#N
2. Nc1ccc(Cl)c(Cl)c1
3. [Cl][Sb]([Cl])[Cl]

Result block:
inactive
inactive
inactive
